# System Under Test: Muscarinic acetylcholine receptor M4 (Homo sapiens, UniProt P08173)
# Sequence (P08173 whole entry): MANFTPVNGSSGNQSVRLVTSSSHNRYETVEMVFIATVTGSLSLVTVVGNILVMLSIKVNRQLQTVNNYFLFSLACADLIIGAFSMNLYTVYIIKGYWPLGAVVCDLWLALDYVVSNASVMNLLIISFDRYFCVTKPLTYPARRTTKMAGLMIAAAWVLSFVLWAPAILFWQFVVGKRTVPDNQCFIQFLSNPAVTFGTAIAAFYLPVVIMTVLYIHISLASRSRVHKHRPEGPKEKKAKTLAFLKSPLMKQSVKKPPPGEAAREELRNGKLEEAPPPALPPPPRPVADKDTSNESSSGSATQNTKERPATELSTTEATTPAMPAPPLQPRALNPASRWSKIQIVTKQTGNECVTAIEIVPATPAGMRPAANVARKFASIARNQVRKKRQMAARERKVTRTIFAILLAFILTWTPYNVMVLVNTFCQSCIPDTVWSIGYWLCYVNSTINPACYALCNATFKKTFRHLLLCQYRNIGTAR
pKi: −log10 of the molar value.
Experimental Endpoint: pKi

[[record]]
molecule = "CCN(CC)CCCC(C)Nc1cnc(C(=O)Nc2cc(F)cc3cccnc23)cn1 (stereo unspecified)"
experimental_endpoint = "pKi"
reported_value = 6.55


---

# System Under Test: Sigma non-opioid intracellular receptor 1 (Homo sapiens, UniProt Q99720)
# Sequence (Q99720 whole entry): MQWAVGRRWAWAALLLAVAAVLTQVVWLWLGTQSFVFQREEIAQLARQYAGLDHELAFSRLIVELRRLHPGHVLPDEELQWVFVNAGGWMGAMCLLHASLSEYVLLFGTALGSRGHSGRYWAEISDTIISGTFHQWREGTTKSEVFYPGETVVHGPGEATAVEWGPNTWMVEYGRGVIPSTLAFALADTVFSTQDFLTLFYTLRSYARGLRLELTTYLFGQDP
# Assay Explanation: Displacement of [3H](+)-pentazocine from human sigma 1 receptor transfected in human HEK293T cells assessed as inhibition constant by radioligand competition binding assay
Experimental Endpoint: Ki

[[record]]
molecule = "CCN(CC)CCCC(C)Nc1cnc(C(=O)Nc2cccc3cc(C)cnc23)cn1 (stereo unspecified)"
reported_value = "0.169 µM"

[[record]]
molecule = "CCN(CC)CCCC(C)NCC(=O)Nc1cc(C)cc2cccnc12 (stereo unspecified)"
reported_value = "0.463 µM"

[[record]]
molecule = "CCN(CC)CCCC(C)Nc1cnc(C(=O)Nc2ccc(Cl)c3ccc(OC)nc23)cn1 (stereo unspecified)"
reported_value = "0.356 µM"

[[record]]
molecule = "CCN(CC)CCCC(C)Nc1cnc(C(=O)Nc2cc(C#N)cc3cccnc23)cn1 (stereo unspecified)"
reported_value = "0.405 µM"

[[record]]
molecule = "O=C(Nc1cc(F)cc2cccnc12)c1cnc(NCCN2CCCC2)cn1"
reported_value = "0.208 µM"

[[record]]
molecule = "CCN(CC)CCCC(C)Nc1cnc(C(=O)Nc2cc(F)cc3cccnc23)cn1 (stereo unspecified)"
reported_value = "0.165 µM"

[[record]]
molecule = "CCN(CC)CCCC(C)Nc1cnc(CNc2cc(F)cc3cccnc23)cn1 (stereo unspecified)"
reported_value = "1.46 µM"

[[record]]
molecule = "CCN(CC)CCCC(C)Nc1cnc(C(=O)Nc2cc(Br)cc3cccnc23)cn1 (stereo unspecified)"
reported_value = "0.046 µM"

[[record]]
molecule = "CCN(CC)CCCC(C)Nc1cnc(C(=O)Nc2cc(O)cc3cccnc23)cn1 (stereo unspecified)"
reported_value = "1.27 µM"

[[record]]
molecule = "Cc1cc(NC(=O)c2cnc(OC3CCNCC3)cn2)c2ncccc2c1"
reported_value = "0.336 µM"

[[record]]
molecule = "CCN(CC)CCCC(C)Nc1cnc(C(=O)Nc2ccc(OC)c3ccc(OC)nc23)cn1 (stereo unspecified)"
reported_value = "0.132 µM"

[[record]]
molecule = "CCN(CC)CCCC(C)Nc1cnc(C(=O)Nc2ccc(C)c3cccnc23)cn1 (stereo unspecified)"
reported_value = "0.398 µM"

[[record]]
molecule = "CCN(CC)CCCC(C)Nc1cnc(C(=O)Nc2cccc3ccc(OC)nc23)cn1 (stereo unspecified)"
reported_value = "0.067 µM"

[[record]]
molecule = "CCN(CCO)CCCC(C)Nc1cnc(C(=O)Nc2cc(C)cc3cccnc23)cn1 (stereo unspecified)"
reported_value = "0.159 µM"

[[record]]
molecule = "CCN(CC)CCCC(C)Nc1ccc(S(=O)(=O)Nc2cc(F)cc3cccnc23)nc1 (stereo unspecified)"
reported_value = "0.188 µM"

[[record]]
molecule = "CCN(CC)CCCC(C)Nc1cnc(C(=O)Nc2cc(F)c(Cl)c3cccnc23)cn1 (stereo unspecified)"
reported_value = "0.122 µM"

[[record]]
molecule = "CCN(CC)CCCC(C)Nc1cnc(C(=O)Nc2cc(C)c(Cl)c3cccnc23)cn1 (stereo unspecified)"
reported_value = "0.067 µM"

[[record]]
molecule = "CCN(CC)CCCC(C)Nc1cnc(C(=O)Nc2cc(C)cc3cccnc23)cn1 (stereo unspecified)"
reported_value = "0.25 µM"

[[record]]
molecule = "CCN(CC)CCCC(C)Nc1cnc(C(=O)Nc2cccc3ccc(Cl)nc23)cn1 (stereo unspecified)"
reported_value = "0.083 µM"

[[record]]
molecule = "CCN(CC)CCCC(C)Nc1cnc(C(=O)Nc2cc(Cl)cc3cccnc23)cn1 (stereo unspecified)"
reported_value = "0.095 µM"

[[record]]
molecule = "CCN(CC)CCCC(C)Nc1cnc(C(=O)Nc2cc(OC)cc3cccnc23)cn1 (stereo unspecified)"
reported_value = "0.137 µM"

